# maps each entry to its Activity
ASSAY_SYSTEM: ATP-dependent translocase ABCB1 (Homo sapiens, UniProt P08183)
Sequence (P08183 whole entry): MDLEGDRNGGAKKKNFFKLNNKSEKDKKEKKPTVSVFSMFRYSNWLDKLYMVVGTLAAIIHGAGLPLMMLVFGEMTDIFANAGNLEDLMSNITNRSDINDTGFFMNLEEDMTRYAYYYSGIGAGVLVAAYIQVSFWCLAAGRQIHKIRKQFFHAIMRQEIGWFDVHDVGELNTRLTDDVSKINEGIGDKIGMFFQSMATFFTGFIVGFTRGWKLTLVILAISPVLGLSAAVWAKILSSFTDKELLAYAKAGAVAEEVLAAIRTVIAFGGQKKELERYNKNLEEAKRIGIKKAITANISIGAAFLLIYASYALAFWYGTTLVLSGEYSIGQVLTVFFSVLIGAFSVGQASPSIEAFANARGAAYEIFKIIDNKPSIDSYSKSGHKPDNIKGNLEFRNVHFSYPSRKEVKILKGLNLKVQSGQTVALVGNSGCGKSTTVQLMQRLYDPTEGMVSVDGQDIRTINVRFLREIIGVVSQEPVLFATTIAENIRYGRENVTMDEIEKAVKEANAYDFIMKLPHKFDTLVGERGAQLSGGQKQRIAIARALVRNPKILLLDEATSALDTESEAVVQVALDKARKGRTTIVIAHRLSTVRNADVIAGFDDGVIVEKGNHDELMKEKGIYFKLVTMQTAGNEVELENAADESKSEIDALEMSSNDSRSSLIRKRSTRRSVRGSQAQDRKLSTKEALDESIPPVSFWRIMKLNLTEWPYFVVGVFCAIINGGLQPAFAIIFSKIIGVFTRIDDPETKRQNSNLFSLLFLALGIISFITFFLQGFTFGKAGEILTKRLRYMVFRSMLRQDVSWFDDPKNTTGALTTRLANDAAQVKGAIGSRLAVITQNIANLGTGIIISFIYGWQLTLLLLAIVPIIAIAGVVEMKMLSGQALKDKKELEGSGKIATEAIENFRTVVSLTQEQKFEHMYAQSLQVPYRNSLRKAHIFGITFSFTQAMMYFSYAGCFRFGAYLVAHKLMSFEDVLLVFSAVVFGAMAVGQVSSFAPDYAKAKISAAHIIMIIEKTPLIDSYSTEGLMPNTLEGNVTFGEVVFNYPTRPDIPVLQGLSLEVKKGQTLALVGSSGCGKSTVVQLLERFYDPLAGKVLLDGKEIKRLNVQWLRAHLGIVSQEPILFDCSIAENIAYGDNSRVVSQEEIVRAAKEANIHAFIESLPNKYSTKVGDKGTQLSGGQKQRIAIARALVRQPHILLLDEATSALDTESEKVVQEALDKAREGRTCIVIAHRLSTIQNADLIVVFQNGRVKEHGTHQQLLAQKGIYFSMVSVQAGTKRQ
MEASUREMENT_DESCRIPTION: Inhibition of Pgp in multidrug-resistant human 2780AD cells assessed as calcein accumulation at 2.5 ug/mL relative to control
Format: cell-based
Parameters: scale not given: the % may be the effect or the level left
APPLIED_CONDITIONS: a2780 adr
Write the answer as a number in %, unit excluded.

INSERT INTO results (compound, endpoint_unit, experimental_value) VALUES
  ('C=C1[C@@H](OC(C)=O)CC[C@@]2(C)[C@@H](OC(=O)/C=C/c3ccccc3)[C@H](OC(C)=O)C3=C(C)C[C@H](OC(C)=O)[C@@H]([C@@H](OC(C)=O)[C@H]12)C3(C)C', '%', 103);

ATP-dependent translocase ABCB1 (Homo sapiens, UniProt P08183) Activity of C=C1[C@@H](OC(C)=O)CC[C@@]2(C)C[C@H](OC(C)=O)C3=C(C)C[C@H](OC(=O)CC)[C@@H]([C@@H](OC(C)=O)[C@H]12)C3(C)C is 98

ATP-dependent translocase ABCB1 (Homo sapiens, UniProt P08183) Activity of C=C1[C@@H](OC(C)=O)CC[C@@]2(C)C[C@H](OC(C)=O)C3=C(C)C[C@H](OC(=O)C(C)CC)[C@@H]([C@@H](OC(C)=O)[C@H]12)C3(C)C (stereo not given in full) is 86

ATP-dependent translocase ABCB1 (Homo sapiens, UniProt P08183) Activity of C=C1[C@@H](OC(C)=O)CC[C@@]2(C)C[C@H](OC(C)=O)C3=C(C)C[C@H](OC(=O)/C=C/c4ccccc4)[C@@H]([C@@H](OC(C)=O)[C@H]12)C3(C)C is 126

ATP-dependent translocase ABCB1 (Homo sapiens, UniProt P08183) Activity of C=C1[C@@H](OC(C)=O)CC[C@@]2(C)C[C@H](OC(C)=O)C3=C(C)C[C@H](OC(C)=O)[C@@H]([C@@H](OC(C)=O)[C@H]12)C3(C)C is 141

ATP-dependent translocase ABCB1 (Homo sapiens, UniProt P08183) Activity of C=C1[C@@H](OC(C)=O)CC[C@@]2(C)C[C@H](O)C3=C(C)C[C@H](OC(=O)/C=C/c4ccccc4)[C@@H]([C@@H](OC(C)=O)[C@H]12)C3(C)C is 132

---

Test system: HepG2
MEASUREMENT_DESCRIPTION: Growth inhibition of human HepG2 cells
Format: functional, cell-based
MEASURED_QUANTITY: IC50 (µM)
Write the answer as a number in µM, unit excluded.

INSERT INTO assay_data (cpd_smiles, experimental_value) VALUES
  ('C=C1[C@@H](OC(C)=O)CC[C@@]2(C)C[C@H](OC(C)=O)C3=C(C)C[C@H](OC(=O)CC)[C@@H]([C@@H](OC(C)=O)[C@H]12)C3(C)C', 86.4);

compound C=C1[C@@H](OC(C)=O)CC[C@@]2(C)C[C@H](O)C3=C(C)C[C@H](OC(C)=O)[C@@H]([C@@H](OC(C)=O)[C@H]12)C3(C)C , IC50 observed: 108

---

Test system: HepG2
MEASUREMENT_DESCRIPTION: Growth inhibition of human HepG2 cells
Format: functional, cell-based
# maps each entry to its IC50
Write the answer as a number in µM, unit excluded.

INSERT INTO assay_data (compound, measured_quantity, experimental_value) VALUES
  ('C=C1[C@@H](OC(C)=O)CC[C@@]2(C)C[C@H](O)C3=C(C)C[C@H](OC(=O)/C=C/c4ccccc4)[C@@H]([C@@H](OC(C)=O)[C@H]12)C3(C)C', 'IC50', 15.7);

Attention now shifts to the item below.
compound C=C1[C@@H](OC(C)=O)CC[C@@]2(C)C[C@H](OC(C)=O)C3=C(C)C[C@H](OC(=O)C(C)C(C)O)[C@@H]([C@@H](OC(C)=O)[C@H]12)C3(C)C (stereo partly drawn) , IC50 observed: 18.5

---

# maps each entry to its IC50
MEASUREMENT_DESCRIPTION: Growth inhibition of human WI38 cells
Assay type: cell-based
APPLIED_CONDITIONS: WI-38

INSERT INTO measurements (cpd_smiles, experimental_value) VALUES
  ('C=C1[C@@H](OC(C)=O)CC[C@@]2(C)C[C@H](OC(C)=O)C3=C(C)C[C@H](OC(=O)c4ccccc4)[C@@H]([C@@H](OC(C)=O)[C@H]12)C3(C)C', '> 176 µM'),
  ('C=C1[C@@H](OC(C)=O)CC[C@@]2(C)C[C@H](OC(=O)/C=C/c3ccccc3)C3=C(C)C[C@H](OC(=O)/C=C/c4ccccc4)[C@@H]([C@@H](OC(C)=O)[C@H]12)C3(C)C', '> 147 µM');

Attention now shifts to the item below.
molecule C=C1[C@@H](OC(C)=O)CC[C@@]2(C)C[C@H](OC(C)=O)C3=C(C)C[C@H](OC(=O)CCCC)[C@@H]([C@@H](OC(C)=O)[C@H]12)C3(C)C , IC50 observed: > 183 µM

---

ASSAY_SYSTEM: ATP-dependent translocase ABCB1 (Homo sapiens, UniProt P08183)
MEASUREMENT_DESCRIPTION: Inhibition of Pgp in multidrug-resistant human 2780AD cells assessed as calcein accumulation at 25 ug/mL relative to control
Assay type: cell-based
Design: scale not given: the % may be the effect or the level left
APPLIED_CONDITIONS: a2780 adr
MEASURED_QUANTITY: Activity (%)
Write the answer as a number in %, unit excluded.

Example molecules with recorded Activity:
INSERT INTO assay_data (molecule, experimental_value) VALUES
  ('C=C1[C@@H](OC(C)=O)CC[C@@]2(C)C[C@H](OC(C)=O)C3=C(C)C[C@H](OC(=O)CC)[C@@H]([C@@H](OC(C)=O)[C@H]12)C3(C)C', 119),
  ('C=C1[C@@H](OC(C)=O)CC[C@@]2(C)C[C@H](OC(C)=O)C3=C(C)C[C@H](OC(=O)c4ccccc4)[C@@H]([C@@H](OC(C)=O)[C@H]12)C3(C)C', 133),
  ('C=C1[C@@H](OC(C)=O)C[C@H](O)[C@@]2(C)C[C@H](OC(C)=O)C3=C(C)C[C@H](OC(=O)C(C)C(C)O)[C@@H]([C@@H](OC(C)=O)[C@H]12)C3(C)C (stereo partly specified)', 107),
  ('C=C1[C@@H](OC(=O)/C=C/c2ccccc2)CC[C@@]2(C)C[C@H](OC(C)=O)C3=C(C)C[C@H](OC(C)=O)[C@@H]([C@@H](OC(C)=O)[C@H]12)C3(C)C', 121);

molecule C=C1[C@@H](OC(C)=O)CC[C@@]2(C)C[C@H](O)C3=C(C)C[C@H](OC(C)=O)[C@@H]([C@@H](OC(C)=O)[C@H]12)C3(C)C , Activity observed: 111

molecule C=C1[C@@H](OC(C)=O)C[C@H](OC(=O)/C=C/c2ccccc2)[C@@]2(C)C[C@H](OC(C)=O)C3=C(C)C[C@H](OC(=O)C(C)CC)[C@@H]([C@@H](OC(C)=O)[C@H]12)C3(C)C (stereo partly specified) , Activity observed: 102

---

ASSAY_SYSTEM: ATP-dependent translocase ABCB1 (Homo sapiens)
MEASUREMENT_DESCRIPTION: Inhibition of Pgp in multidrug-resistant human 2780AD cells assessed as calcein accumulation at 2.5 ug/mL relative to control
Assay type: cell-based
Set-up: scale not given: the % may be the effect or the level left
APPLIED_CONDITIONS: a2780 adr
MEASURED_QUANTITY: Activity (%)
Write the answer as a number in %, unit excluded.

ATP-dependent translocase ABCB1 (Homo sapiens) Activity of C=C1[C@@H](OC(C)=O)CC[C@@]2(C)C[C@H](OC(C)=O)C3=C(C)C[C@H](OC(=O)CCC)[C@@H]([C@@H](OC(C)=O)[C@H]12)C3(C)C is 98

ATP-dependent translocase ABCB1 (Homo sapiens) Activity of C=C1[C@@H](OC(C)=O)C[C@H](OC(=O)/C=C/c2ccccc2)[C@@]2(C)C[C@H](OC(C)=O)C3=C(C)C[C@H](OC(=O)C(C)C(C)O)[C@@H]([C@@H](OC(C)=O)[C@H]12)C3(C)C (some centres undefined) is 102

ATP-dependent translocase ABCB1 (Homo sapiens) Activity of C=C1[C@@H](O)CC[C@@]2(C)C[C@H](OC(C)=O)C3=C(C)C[C@H](OC(C)=O)[C@@H]([C@@H](OC(C)=O)[C@H]12)C3(C)C is 118

ATP-dependent translocase ABCB1 (Homo sapiens) Activity of C=C1[C@@H](OC(C)=O)CC[C@@]2(C)C[C@H](OC(C)=O)C3=C(C)C[C@H](OC(C)=O)[C@@H]([C@@H](OC(=O)c4ccccc4)[C@H]12)C3(C)C is 96

ATP-dependent translocase ABCB1 (Homo sapiens) Activity of C=C1[C@@H](OC(C)=O)CC[C@@]2(C)C[C@H](OC(C)=O)C3=C(C)C[C@H](OC(=O)C(C)C)[C@@H]([C@@H](OC(C)=O)[C@H]12)C3(C)C is 139
